Catalogue of activity at 0.5 h, 10 µM values
Biological target: carboxylesterase 1 (CE1) (Homo sapiens, UniProt P23141)
Sequence (P23141 whole entry): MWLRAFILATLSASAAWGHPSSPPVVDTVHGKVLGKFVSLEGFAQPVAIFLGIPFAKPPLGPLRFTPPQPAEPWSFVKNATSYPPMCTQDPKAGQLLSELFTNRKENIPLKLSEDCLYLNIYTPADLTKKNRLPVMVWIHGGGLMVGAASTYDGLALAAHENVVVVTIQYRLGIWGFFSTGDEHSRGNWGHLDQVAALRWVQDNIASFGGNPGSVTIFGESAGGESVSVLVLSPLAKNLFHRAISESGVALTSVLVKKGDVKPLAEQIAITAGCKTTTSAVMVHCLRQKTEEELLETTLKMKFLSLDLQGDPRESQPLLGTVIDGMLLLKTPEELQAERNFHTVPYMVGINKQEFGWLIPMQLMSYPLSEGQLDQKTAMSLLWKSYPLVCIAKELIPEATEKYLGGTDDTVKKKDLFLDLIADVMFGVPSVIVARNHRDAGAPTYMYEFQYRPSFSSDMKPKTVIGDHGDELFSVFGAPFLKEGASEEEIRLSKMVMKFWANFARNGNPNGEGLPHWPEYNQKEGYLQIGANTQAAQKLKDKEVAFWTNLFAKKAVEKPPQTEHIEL
Assay: Inhibition of human CE1 expressed in human U373MG cells assessed as reduction in enzyme-mediated oseltamivir hydrolysis by measuring oseltamivir carboxylate level at 10 uM preincubated for 10 mins followed by oseltamivir addition measured after 30 mins by UPLC-MS analysis relative to control
Assay type: cell-based
Design: scale not given: the % may be the effect or the level left
Settings: U373MG cells that express human CE1, probe oseltamivir, read-out: Activity
Supply the numeric figure in %, leaving out any unit text.

# COMPOUND, ENDPOINT_UNIT, activity at 0.5 h, 10 µM
measured = [
    ("Cc1cccc2c1ccc1c3c(c(=O)oc(=O)c12)[C@@H](C)CO3", "%", 1),
    ("Cc1cccc2c1ccc1c3occ(C)c3c(=O)oc(=O)c21", "%", 12),
    ("Cc1coc2c1c(=O)oc(=O)c1c3c(ccc12)C(C)(C)CCC3", "%", 27),
    ("C[C@H]1COc2c1c(=O)oc(=O)c1c3c(ccc21)C(C)(C)CCC3", "%", 10),
]

Now look at this entry.
Ask: For `O=C(C(=O)c1ccccc1)c1ccccc1` , write its activity at 0.5 h, 10 µM.
Result: 5

* * *

Biological target: Acetylcholinesterase (Homo sapiens, UniProt P22303)
Sequence (P22303 whole entry): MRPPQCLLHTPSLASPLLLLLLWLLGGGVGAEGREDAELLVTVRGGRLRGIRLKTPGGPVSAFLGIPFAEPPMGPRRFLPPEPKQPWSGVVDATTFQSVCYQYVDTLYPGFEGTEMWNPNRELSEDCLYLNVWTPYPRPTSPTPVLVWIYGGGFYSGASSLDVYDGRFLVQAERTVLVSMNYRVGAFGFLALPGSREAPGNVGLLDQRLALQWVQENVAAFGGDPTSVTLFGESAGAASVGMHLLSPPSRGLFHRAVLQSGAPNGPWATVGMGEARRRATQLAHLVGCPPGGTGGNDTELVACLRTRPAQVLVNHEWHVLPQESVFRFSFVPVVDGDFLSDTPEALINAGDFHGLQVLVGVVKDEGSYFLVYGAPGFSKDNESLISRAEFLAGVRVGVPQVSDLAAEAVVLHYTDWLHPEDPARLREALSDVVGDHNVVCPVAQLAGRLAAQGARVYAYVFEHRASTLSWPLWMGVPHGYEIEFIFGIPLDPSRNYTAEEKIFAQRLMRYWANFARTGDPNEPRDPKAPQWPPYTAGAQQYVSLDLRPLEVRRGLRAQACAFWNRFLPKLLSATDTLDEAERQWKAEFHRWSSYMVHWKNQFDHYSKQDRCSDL
READOUT: IC50

Ask: Please list IC50 recorded for the compound `C[C@H]1COc2c1c(=O)oc(=O)c1c3c(ccc21)C(C)(C)CCC3`
Result: 3.21 µM

Ask: Please give measured IC50 of the following entry: `Cc1coc2c1c(=O)oc(=O)c1c3c(ccc12)C(C)(C)CCC3`
Result: 3.31 µM

Ask: Query IC50 for `Cc1cccc2c1ccc1c3occ(C)c3c(=O)oc(=O)c21`
Result: > 10 µM

Ask: Recall and state the measured IC50 for `Cc1cccc2c1ccc1c3c(c(=O)oc(=O)c12)[C@@H](C)CO3` .
Result: 10.1 µM

* * *

Here the recorded inhibition is given for each entry.
Molecular target: Acetylcholinesterase (Homo sapiens, UniProt P22303)
Assay: Inhibition of human AChE at 10 uM using acetylthiocholine as substrate relative to control
Give the value, in units of %, as a plain number.

A selection of reference data follows.
# COMPOUND, ENDPOINT_UNIT, inhibition
data = [
    ("C[C@H]1COc2c1c(=O)oc(=O)c1c3c(ccc21)C(C)(C)CCC3", "%", 68),
    ("Cc1coc2c1c(=O)oc(=O)c1c3c(ccc12)C(C)(C)CCC3", "%", 65),
    ("Cc1cccc2c1ccc1c3occ(C)c3c(=O)oc(=O)c21", "%", 47),
]

Now, please, on to the next molecule.
Ask: Hello, please tell me recorded inhibition for this one: `Cc1cccc2c1ccc1c3c(c(=O)oc(=O)c12)[C@@H](C)CO3`
Result: 66

* * *

Experiment: Inhibition of human intestinal carboxylesterase using o-nitrophenyl acetate as substrate
READOUT: Ki
Please answer using a numeric value trailed by its unit.

These recorded examples may help you get a feel for the data.
# COMPOUND, MEASURED
measured = [
    ("Cc1coc2c1c(=O)oc(=O)c1c3c(ccc12)C(C)(C)CCC3", "1.4 nM"),
    ("Cc1cccc2c1ccc1c3occ(C)c3c(=O)oc(=O)c21", "0.82 nM"),
]

Ask: Return Ki for the following compound: `Cc1cccc2c1ccc1c3c(c(=O)oc(=O)c12)[C@@H](C)CO3`
Result: 0.61 nM

Ask: In one line, give reported Ki of the entry `C[C@H]1COc2c1c(=O)oc(=O)c1c3c(ccc21)C(C)(C)CCC3` .
Result: 0.75 nM

These measurements were taken from ChEMBL document CHEMBL4266021.
